experiment: Plasma clearance was determined in dog after 1 mg/kg (i.v.) and 5 mg/kg (p.o.) administration; assay type: ADME, organism-based, Canis lupus familiaris; settings: iv
measurement name: clearance (mL/min/kg)

[
  {
    "smiles structure": "COc1cc(-c2nn([C@H]3CC[C@H](N4CCN(C)CC4)CC3)c3ncnc(N)c23)ccc1NC(=O)c1cc2ccccc2n1C",
    "readout value": 11.7
  }
]

----------
test: Plasma clearance was determined in mouse after 5 mg/kg (i.v.) and 6 mg/kg (p.o.) administration; type: ADME, organism-based; conditions: iv, read-out: Clp (converted)

[
  {
    "smiles structure": "COc1cc(-c2nn([C@H]3CC[C@H](N4CCN(C)CC4)CC3)c3ncnc(N)c23)ccc1NC(=O)c1cc2ccccc2n1C",
    "unit label": "mL/min/kg",
    "clearance": 28.3
  }
]
